Measured values drawn from paper PMC4488857 for this set.

Molecular target: multidrug resistance-associated protein 2 (MRP2) (Homo sapiens, UniProt Q92887)
Sequence (Q92887 whole entry): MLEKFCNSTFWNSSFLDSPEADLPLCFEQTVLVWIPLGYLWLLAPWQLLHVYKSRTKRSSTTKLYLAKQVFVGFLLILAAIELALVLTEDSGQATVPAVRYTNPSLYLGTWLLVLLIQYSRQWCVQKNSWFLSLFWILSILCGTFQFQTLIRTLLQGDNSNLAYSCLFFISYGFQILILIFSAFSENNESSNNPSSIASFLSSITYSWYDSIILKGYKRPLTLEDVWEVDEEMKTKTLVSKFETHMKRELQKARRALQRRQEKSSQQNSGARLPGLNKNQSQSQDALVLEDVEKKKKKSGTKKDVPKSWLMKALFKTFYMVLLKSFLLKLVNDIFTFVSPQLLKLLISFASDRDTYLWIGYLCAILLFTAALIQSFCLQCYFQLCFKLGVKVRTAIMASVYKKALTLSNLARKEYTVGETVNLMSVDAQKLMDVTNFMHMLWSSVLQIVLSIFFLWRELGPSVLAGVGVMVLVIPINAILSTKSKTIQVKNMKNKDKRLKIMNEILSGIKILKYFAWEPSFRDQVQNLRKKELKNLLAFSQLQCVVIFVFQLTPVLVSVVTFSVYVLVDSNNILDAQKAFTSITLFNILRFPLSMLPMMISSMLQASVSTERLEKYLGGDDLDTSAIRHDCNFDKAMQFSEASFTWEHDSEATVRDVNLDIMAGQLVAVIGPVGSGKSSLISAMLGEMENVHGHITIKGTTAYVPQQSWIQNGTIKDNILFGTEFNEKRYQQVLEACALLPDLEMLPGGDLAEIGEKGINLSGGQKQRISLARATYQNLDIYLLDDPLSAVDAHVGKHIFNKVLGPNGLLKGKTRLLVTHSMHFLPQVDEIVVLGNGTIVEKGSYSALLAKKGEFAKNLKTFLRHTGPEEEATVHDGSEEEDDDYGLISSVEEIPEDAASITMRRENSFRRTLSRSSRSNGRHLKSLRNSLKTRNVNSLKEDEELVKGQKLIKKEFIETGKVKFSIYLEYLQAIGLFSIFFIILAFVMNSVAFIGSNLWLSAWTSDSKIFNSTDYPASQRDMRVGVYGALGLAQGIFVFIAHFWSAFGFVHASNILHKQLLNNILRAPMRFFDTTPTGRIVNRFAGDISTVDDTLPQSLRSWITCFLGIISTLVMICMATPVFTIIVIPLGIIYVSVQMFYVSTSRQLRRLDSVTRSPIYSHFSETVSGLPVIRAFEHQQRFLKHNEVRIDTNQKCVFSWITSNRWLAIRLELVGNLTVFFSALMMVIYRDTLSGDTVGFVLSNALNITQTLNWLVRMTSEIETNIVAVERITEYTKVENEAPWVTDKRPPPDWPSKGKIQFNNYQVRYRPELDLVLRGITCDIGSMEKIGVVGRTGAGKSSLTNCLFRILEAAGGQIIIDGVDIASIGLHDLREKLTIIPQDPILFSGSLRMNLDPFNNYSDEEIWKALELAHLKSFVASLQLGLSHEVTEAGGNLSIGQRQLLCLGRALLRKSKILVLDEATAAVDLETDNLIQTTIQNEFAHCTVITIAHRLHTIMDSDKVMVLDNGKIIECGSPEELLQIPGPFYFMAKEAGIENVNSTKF
Assay: inhibition of ATP-dependent platinum uptake (oxaliplatin […]) in MRP2-expressing membrane vesicles, ICPMS
pIC50: −log10 of the molar value.
REPORTED PROPERTY: pIC50

Query string: Give the measured pIC50 of O=c1c(O)c(-c2cc(O)c(O)c(O)c2)oc2cc(O)cc(O)c12 .
Result string: 4.00 to 5.00
